Listed next: entries and their corresponding fluorescence intensity.
# assay_text: compound fluorescence in toxin protease inhibitor counterscreen, primary screen, artefact control for toxin protease inhibitor project, biochemical, multiplex microsphere, HTS (AID 624483)
# measurement_setup: compound autofluorescence counterscreen, microsphere flow cytometry; stronger effect = higher value
Hit rate of the full screen: of about 360,000 compounds, about 11,000 (3.1%) were called active. About 2% were inconclusive and are not listed. What follows is part of a selection rich in actives, with near analogues and random picks from the rest.
Output spec: single numeric token, no unit.

compound | reported_metric | numeric_value
Cc1cccc(C(=O)OCC(=O)Nc2sccc2C(N)=O)c1C | fluorescence intensity | 3570
CC(=O)NN=C(C)c1ccc(NC(=O)C2CC2)cc1 | fluorescence intensity | 3420

Challenge: Specify measured fluorescence intensity for N#CC1=C(N)Oc2cc(O)ccc2C1C1CCCCC1 (stereo unspecified) .
Response given: 4810

Challenge: Specify measured fluorescence intensity for O=C(Nc1ccc(N2CCOCC2)cc1)c1cccc(S(=O)(=O)N2CCOCC2)c1 .
Response given: 2540
